# MEASURED ON: CcilCSP2 (Corythucha ciliata, UniProt A0A2S0M1B9)
# Sequence (A0A2S0M1B9 entry or part of it): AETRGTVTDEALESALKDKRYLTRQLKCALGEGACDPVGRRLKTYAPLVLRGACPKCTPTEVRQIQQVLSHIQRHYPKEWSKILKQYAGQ
# ASSAY PROTOCOL: Fluorescence competitive binding assay with 1-NPN
PARAMETER MEASURED: Kd (µM)
Numbers only, in µM.

c1ccc(Nc2cccc3ccccc23)cc1 :: 2.08

INPUT: Field request: Kd | item: CC(C)=CCC/C(C)=C/CO [Geraniol, E-3,7-dimethyl-2,6-octadien-1-ol, reference compound]
OUTPUT: 15.2

###

# MEASURED ON: CcilCSP2 (Corythucha ciliata, UniProt A0A2S0M1B9)
# ASSAY PROTOCOL: Fluorescence competitive binding assay with 1-NPN
# MEASUREMENT SETUP: competitive binding, 1-NPN as fluorescent reporter, calculated from IC50; read-out: KD
PARAMETER MEASURED: pKd
Answers are plain numbers, as −log10 of the molar value.

INPUT: Request body: readout pKd, system CcilCSP2 (Corythucha ciliata, UniProt A0A2S0M1B9), query O=C(Oc1ccccc1)c1ccccc1 [Phenyl benzoate] . Return the value.
OUTPUT: 4.86
